Would you kindly list melting point for each of these compounds?

Input line: May I ask what melting point has been recorded for `COc1nc(COc2cnccn2)cnc1NS(=O)(=O)c1cccc(Cl)c1Cl` ?
Output line: 155 °C (dec.)

Input line: Would you kindly share the measured melting point for `COc1nc(Cl)c(Cl)nc1NS(=O)(=O)c1ccc(Cl)c(Cl)c1` ?
Output line: 189 to 191 °C

Input line: Query: melting point; subject: `COc1nc(CO)c(Cl)nc1NS(=O)(=O)c1cccc(Cl)c1Cl`
Output line: 145 to 147 °C

Input line: # lookup: melting point of `COc1nccnc1NS(=O)(=O)c1cccc(Cl)c1Cl`
Output line: 183 to 184 °C

Input line: Form field: reported melting point of `COc1nc(Br)cnc1NS(=O)(=O)c1ccccc1C#N`
Output line: 190 to 191.5 °C

Input line: For the compound `COc1nc(C)cnc1NS(=O)(=O)c1ccc(Cl)cc1` , what melting point is on record?
Output line: 155 to 156 °C

Input line: Entry `O=S(=O)(Nc1ncc(Cl)nc1OCc1ccc(CNCCO)cc1)c1cccc(Cl)c1Cl` has what melting point?
Output line: 202 to 205 °C

Input line: Need melting point, item `NCc1ccc(COc2nc(Cl)cnc2NS(=O)(=O)c2cccc(Cl)c2Cl)o1`
Output line: 201 to 202 °C

Input line: I would be grateful if you could share the reported melting point for `COc1nc(-c2ccc(F)cc2F)cnc1NS(=O)(=O)c1cccc(Cl)c1Cl` .
Output line: 169 to 170 °C
